# Tested on: T47D
# assay_name: NCI tumour cell line growth inhibition, 48 h
The source made the active and inactive calls. Cut-off read from the data, not from the text of the source: active = GI50 up to about 1.1 µM and inactive = higher.
Reported GI50 values are given for each entry in this list.

Before answering, review these 5 worked examples.
[
  {
    "compound": "CC(C)C(C/C=C1\\CC(CO)(COC(=O)CC(C(C)C)C(C)C)OC1=O)C(C)C (stereo not drawn)",
    "GI50": "13.3 µM (inactive)"
  },
  {
    "compound": "C[C@@H]1CC(=O)[C@@]2(C)[C@](O)(CCC3O[C@]32C)[C@@]12CC(c1ccoc1)OC2=O (stereo partly drawn)",
    "GI50": "> 100 µM (inactive)"
  },
  {
    "compound": "O=C(Nc1c(C(F)(F)F)cc(-c2ccccc2)[nH]c1=O)N1CCOCC1",
    "GI50": "> 100 µM (inactive)"
  },
  {
    "compound": "CC(C)(C)OC(=O)N1CC(O)O[C@H](c2ccccc2)[C@@H]1c1ccccc1 (stereo partly drawn)",
    "GI50": "31.1 µM (inactive)"
  },
  {
    "compound": "Nc1nc(N)c2nn(-c3ccc(C(=O)O)cc3)nc2n1",
    "GI50": "> 100 µM (inactive)"
  }
]

QUERY: // returns reported GI50 for input COc1cccc(N2C(=O)CSC2c2cccc(Oc3ccccc3)c2)c1 (stereo not drawn)
RESULT: 9.04 µM (inactive)

QUERY: Would you mind telling me what GI50 value was observed for c1ccc2nc3c(nc2c1)sc1ccccc13 ?
RESULT: > 100 µM (inactive)

QUERY: What GI50 value was documented for this compound, O=C(NNC(=S)Nc1ccc(Br)cc1)c1cc(-c2ccccc2)nc2ccccc12 ?
RESULT: 17.1 µM (inactive)

====

# System: XF498
# assay_name: NCI tumour cell line growth inhibition, 48 h
Active and inactive are the calls of the source. Rule as the data show it: active = GI50 up to about 1.1 µM and inactive = higher.
Please answer using one outcome listed in class 1 (active), class 0 (inactive)

Here's what some known entries look like.
[
  {
    "molecule": "COC(=O)C(=O)C(C(=O)OC)C(=O)C(=O)Nc1c(C)cccc1C (configuration not stated)",
    "class_assignment": "class 0"
  },
  {
    "molecule": "COC(=O)C(=O)OC1(C(C)=O)CC2(c3ccccc3)OC1(c1ccccc1)c1ccccc12 (configuration not stated)",
    "class_assignment": "class 0"
  },
  {
    "molecule": "O=C(CNc1ccc2c(=S)c3ccccc3[nH]c2c1)Nc1ccccc1-c1ccccc1NC(=O)CNc1ccc2c(=S)c3ccccc3[nH]c2c1",
    "class_assignment": "class 0"
  },
  {
    "molecule": "COc1cccc(SSc2cccc(OC)c2C(=O)O)c1C(=O)O",
    "class_assignment": "class 0"
  },
  {
    "molecule": "CCCCCCCCCCC(O)C1CCC(C(O)CCC(O)C2CCC(CCCCCCC[C@H](O)CC3=C[C@@H](C)OC3=O)O2)O1 (some centres not stated)",
    "class_assignment": "class 0"
  },
  {
    "molecule": "C=CCCCn1ccc2ccccc21",
    "class_assignment": "class 0"
  }
]

--- query ---
QUERY: Look up the recorded call for Cc1cc(O)c2c(c1O)C(=O)C13C(=C(O)C4C(O)C1C1C(O)C3C(O)=C3C(=O)c5c(O)cc(C)c(O)c5C(=O)C341)C2=O (configuration not stated) in this test.
RESULT: class 1
